- system: HDAC1 enzyme (Homo sapiens, UniProt Q13547)
- Construct: transducing full length HDAC1 and HDAC6 genes into Sf-9 insect cells; GST; purchased SignalChem; host or cells: Sf-9 insect cells
- Sequence (Q13547 whole entry): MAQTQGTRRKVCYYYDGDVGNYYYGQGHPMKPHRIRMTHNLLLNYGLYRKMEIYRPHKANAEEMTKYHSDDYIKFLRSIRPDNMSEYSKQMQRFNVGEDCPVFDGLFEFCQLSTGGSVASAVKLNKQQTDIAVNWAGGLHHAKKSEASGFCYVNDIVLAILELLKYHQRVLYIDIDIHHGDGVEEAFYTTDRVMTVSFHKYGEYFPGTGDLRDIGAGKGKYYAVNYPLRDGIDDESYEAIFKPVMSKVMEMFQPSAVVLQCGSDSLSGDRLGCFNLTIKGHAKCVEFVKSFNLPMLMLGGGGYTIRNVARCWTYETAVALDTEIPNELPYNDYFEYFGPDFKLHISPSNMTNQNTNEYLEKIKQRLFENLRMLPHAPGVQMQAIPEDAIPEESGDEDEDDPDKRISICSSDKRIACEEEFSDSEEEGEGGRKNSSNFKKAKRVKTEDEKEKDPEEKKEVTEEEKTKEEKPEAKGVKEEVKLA
- assayInfo: HDAC1 enzyme inhibitory assay (HDAC-Glo I/II Assay kit)
- Format: biochemical
- experimentalParameters: 1 μM test compound; wells without enzyme = 100% inhibition; read-out: HDAC1 inhibitory rate (%) (1 μM)
// 0 strictly below 30% in inhibition at 1 µM; 1 otherwise

{"molecule": "O=C1c2cc(-c3noc(C(F)(F)F)n3)ccc2CN1Cc1nccs1", "cat": 0}
{"molecule": "N#Cc1ccc(CN2Cc3ccc(-c4noc(C(F)(F)F)n4)cc3C2=O)cc1", "cat": 0}
{"molecule": "O=C1c2cc(-c3noc(C(F)(F)F)n3)ccc2CN1Cc1ccccc1", "cat": 0}
{"molecule": "C[C@@H](c1ccccc1)N1Cc2ccc(-c3noc(C(F)(F)F)n3)cc2C1=O", "cat": 0}
{"molecule": "C[C@@H](c1ccccc1)N1Cc2ncc(-c3noc(C(F)(F)F)n3)cc2C1=O", "cat": 1}
{"molecule": "C[C@H](c1cccc2ccccc12)N1Cc2ccc(-c3noc(C(F)(F)F)n3)cc2C1=O", "cat": 0}
{"molecule": "COc1cc(CN2Cc3ccc(-c4noc(C(F)(F)F)n4)cc3C2=O)ccc1OCC1CCCO1 (stereo not shown)", "cat": 1}
{"molecule": "C[C@@H](c1ccc(F)cc1)N1Cc2ccc(-c3noc(C(F)(F)F)n3)cc2C1=O", "cat": 0}
{"molecule": "CN(c1ncccc1CN1Cc2ccc(-c3noc(C(F)(F)F)n3)cc2C1=O)S(C)(=O)=O", "cat": 0}
{"molecule": "C[C@@H](c1cccc(F)c1)N1Cc2ccc(-c3noc(C(F)(F)F)n3)cc2C1=O", "cat": 0}
{"molecule": "CC(c1ccccc1)N1Cc2ncc(-c3noc(C(F)(F)F)n3)cc2C1=O (stereo not shown)", "cat": 1}
{"molecule": "C[C@@H](c1ccccc1F)N1Cc2ccc(-c3noc(C(F)(F)F)n3)cc2C1=O", "cat": 0}
{"molecule": "COc1cccc(CN2Cc3ccc(-c4noc(C(F)(F)F)n4)cc3C2=O)c1", "cat": 1}
{"molecule": "O=C1c2cc(-c3noc(C(F)(F)F)n3)cnc2CN1Cc1cccnc1", "cat": 1}
{"molecule": "O=C1c2cc(-c3noc(C(F)(F)F)n3)cnc2CN1Cc1ccccc1", "cat": 1}
